System: MOLM-13
assay-comment: Antiproliferative activity against human MOLM-13 cells incubated for 72 hrs by MTT assay
Assay type: functional, cell-based
condition-info: MOLM-13, 72 h
Recorded IC50 values for a group of molecules are listed next.

[
  {
    "molecule": "COc1cc(F)ccc1-c1ncnc(Nc2cccc(CS(C)(=O)=NC(=O)CCC(=O)CCC(=O)NCCNc3cccc4c3C(=O)N(C3CCC(=O)NC3=O)C4=O)c2)n1 (stereo unspecified)",
    "censoring-sign": "=",
    "IC50 [µM]": 0.13
  },
  {
    "molecule": "COc1cc(F)ccc1-c1ncnc(Nc2cccc(CS(C)(=O)=NC(=O)CCC(=O)CCC(=O)NCCCCCNc3cccc4c3C(=O)N(C3CCC(=O)NC3=O)C4=O)c2)n1 (stereo unspecified)",
    "censoring-sign": "=",
    "IC50 [µM]": 0.74
  },
  {
    "molecule": "COc1cc(N2CCN(CCCCCC(=O)NCCNc3cccc4c3C(=O)N(C3CCC(=O)NC3=O)C4=O)CC2)ccc1-c1ncnc(Nc2cccc(CS(C)(=N)=O)c2)n1 (stereo unspecified)",
    "censoring-sign": ">",
    "IC50 [µM]": 50
  },
  {
    "molecule": "COc1cc(F)ccc1-c1ncnc(Nc2cccc(CS(C)(=O)=NC(=O)COCCOCCOCC(=O)NCCCCCNc3cccc4c3C(=O)N(C3CCC(=O)NC3=O)C4=O)c2)n1 (stereo unspecified)",
    "censoring-sign": "=",
    "IC50 [µM]": 0.48
  },
  {
    "molecule": "COc1cc(F)ccc1-c1ncnc(Nc2cccc(CS(C)(=O)=NC(=O)CCCCCCCCCC(=O)NCCNc3cccc4c3C(=O)N(C3CCC(=O)NC3=O)C4=O)c2)n1 (stereo unspecified)",
    "censoring-sign": "=",
    "IC50 [µM]": 0.38
  },
  {
    "molecule": "COc1cc(F)ccc1-c1ncnc(Nc2cccc(CS(C)(=O)=NC(=O)CCCCCC(=O)NCCNc3cccc4c3C(=O)N(C3CCC(=O)NC3=O)C4=O)c2)n1 (stereo unspecified)",
    "censoring-sign": "=",
    "IC50 [µM]": 1.11
  }
]

* * *

Tested on: A549
assay-comment: Antiproliferative activity against human A549 cells incubated for 72 hrs by MTT assay
Assay type: functional, cell-based
condition-info: A549, 72 h
pIC50: −log10 of the molar value.
Recorded pIC50 values for a group of compounds are listed next.

[
  {
    "compound": "COc1cc(N2CCN(CCCCCCC(=O)NCCNc3cccc4c3C(=O)N(C3CCC(=O)NC3=O)C4=O)CC2)ccc1-c1ncnc(Nc2cccc(CS(C)(=N)=O)c2)n1 (centres undefined)",
    "pIC50": "< 4.30"
  },
  {
    "compound": "COc1cc(N2CCN(CCCCCCCCCC(=O)NCCNc3cccc4c3C(=O)N(C3CCC(=O)NC3=O)C4=O)CC2)ccc1-c1ncnc(Nc2cccc(CS(C)(=N)=O)c2)n1 (centres undefined)",
    "pIC50": "< 4.30"
  },
  {
    "compound": "COc1cc(F)ccc1-c1ncnc(Nc2cccc(CS(C)(=O)=NC(=O)CCCCCCCCCC(=O)NCCNc3cccc4c3C(=O)N(C3CCC(=O)NC3=O)C4=O)c2)n1 (centres undefined)",
    "pIC50": 5.64
  },
  {
    "compound": "COc1cc(N2CCN(CCCCCCCC(=O)NCCNc3cccc4c3C(=O)N(C3CCC(=O)NC3=O)C4=O)CC2)ccc1-c1ncnc(Nc2cccc(CS(C)(=N)=O)c2)n1 (centres undefined)",
    "pIC50": "< 4.30"
  }
]

Data credit: ChEMBL document CHEMBL4819004
